Biological target: T1, recombinant gp120 of HIV-1 strain IIIb (HIV-1 strain IIIb, UniProt P04578 33-511)
T1 construct: domain: gp120; also called IIIb-derived gp120; gp 120 (IIIB strain)
Assay: SPR BIAcore, gp120 on chip;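 further: fab fragments flowed at 0.5 to 10 ug/ml over immobilized gp120, resonance units tracked during association and dissociation, equilibrium constants derived from the rate constants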
Catalogue of binders with associated Ka
Please respond with the number in M⁻¹ and leave the unit unwritten.

Solved entries:
| binder | Ka / M⁻¹ |
| --- | --- |
| composite Fab H101/4L-1 (Fab, V domains shown) VH: LEQSGAEVKKPGASVKVSCQASGYRFSHFTVHWVRQAPGQRFEWHGWINPYNGNKEFSAKFQDRVTFTADTSANTAYMELRSLRSADTAVYYCARVGEWGWHQRRYDNYYMDVWGKGTTVIVSS VL: ELTQSPGTLSLSPGERATFSCRSSHSIRSRRVAWYQHKPGQAPRLVIHGVSNRASGISDRFSGSGSGTDFTLTITRVEPEDFALYYCQVYGASSYTFGQGTKLERKR | 2.63e+09 |
| composite Fab H33/LH-11 (Fab, V domains shown) VH: LEQSGAEVKKPGASVKVSCQASGYRFSHFTLHWVRQAPGQRFEWHGWINPYNGNKEFSAKFQDRVTFTADTSANTAYMELRSLRSADTAVYYCARVGEWGWEMFRYDNYYMDVWGKGTTVIVSS VL: ELTQSPGTLSLSPGERATFSCRSSHQLDGSRVAWYQHKPGQAPRLVIHGVSNRASGISDRFSGSGSGTDFTLTITRVEPEDFALYYCQTYGRGHYTFGQGTKLERKR | 1.36e+10 |

# evaluate next
Input: Dear colleague, I am looking for the recorded Ka of the following binder: composite Fab H101/L42-1 (Fab, V domains shown) VH: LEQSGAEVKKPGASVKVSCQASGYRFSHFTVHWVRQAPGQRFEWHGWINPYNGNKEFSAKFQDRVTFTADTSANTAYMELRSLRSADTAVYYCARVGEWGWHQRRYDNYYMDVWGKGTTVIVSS VL: ELTQSPGTLSLSPGERATFSCRSSHQLDGSRVAWYQHKPGQAPRLVIHGVSNRASGISDRFSGSGSGTDFTLTITRVEPEDFALYYCQQYGWPFYTFGQGTKLERKR
Output: 7.7e+09
